Biological target: 5-HT3A receptor (Homo sapiens)
Construct: gene HTR3A
Sequence (P46098 24-478): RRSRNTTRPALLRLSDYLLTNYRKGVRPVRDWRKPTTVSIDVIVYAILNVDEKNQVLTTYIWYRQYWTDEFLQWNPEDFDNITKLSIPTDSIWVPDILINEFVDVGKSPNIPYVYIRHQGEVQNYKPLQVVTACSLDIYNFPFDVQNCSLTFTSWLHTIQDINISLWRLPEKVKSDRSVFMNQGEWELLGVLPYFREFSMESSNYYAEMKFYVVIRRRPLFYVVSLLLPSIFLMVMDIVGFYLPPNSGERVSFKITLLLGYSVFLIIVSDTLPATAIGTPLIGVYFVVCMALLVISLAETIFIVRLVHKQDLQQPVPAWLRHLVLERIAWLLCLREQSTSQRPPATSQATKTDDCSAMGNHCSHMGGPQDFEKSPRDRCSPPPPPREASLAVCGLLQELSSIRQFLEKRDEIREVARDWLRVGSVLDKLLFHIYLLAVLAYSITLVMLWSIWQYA
Assay: cell-based
valueKind: Ki

                                   compound  measuredresult
0  O=C1c2cccc3c2[C@H](CCC3)CN1[C@@H]1CN2CCC1CC2 [PAL, palonosetron]         0.22 nM
